read-out: Monocyte Chemoattractant Protein-1 (MCP1), CCL2 (gene 6347); test: BSK_LPS_MCP1: BioMAP Diversity Plus: LPS Assay for Monocyte Chemoattractant Protein-1 (MCP1) Biomarker Activity (AID 2283081); conditions: primary human HUVEC with PBMC; actives raise or lower the signal
The source made the active and inactive calls. The calls were made as follows: active = hit-call score of the fitted dose curve at least 0.9, where 1 is the maximum; inactive = score below 0.9.
Result category, one only: active, inactive

CCC(=O)O[C@H]1CC[C@H]2[C@@H]3CCC4=CC(=O)CC[C@]4(C)[C@H]3CC[C@]12C
active
CC(C)(c1ccccc1)c1ccc(O)cc1
active
N#Cc1ccc(N(CC(N)=O)CC(F)(F)F)cc1C(F)(F)F
inactive

### Prompt Recorded test outcome, item Cc1cccc(C)c1N
### Response inactive

### Prompt Recorded test outcome, item O=C(NC(=O)c1cc(F)c(F)cc1Cl)Nc1cc(F)ccc1N1CCC(C(=O)O)CC1
### Response inactive

### Prompt Recorded test outcome, item CC(C)(O)C(=O)Nc1ccc([N+](=O)[O-])c(C(F)(F)F)c1
### Response inactive

### Prompt Recorded test outcome, item Cc1ccccc1[N+](=O)[O-]
### Response inactive

### Prompt Recorded test outcome, item O=C(O)C(F)(F)C(F)(F)C(F)(F)C(F)(F)C(F)(F)F
### Response inactive

### Prompt Recorded test outcome, item c1cc2ccc3cccc4ccc(c1)c2c34
### Response inactive

### Prompt Recorded test outcome, item CCC(C)c1cc([N+](=O)[O-])cc([N+](=O)[O-])c1O (configuration not stated)
### Response active

### Prompt Recorded test outcome, item CCCCCCCCOC(=O)c1ccccc1C(=O)OCCCCCCCC
### Response inactive

### Prompt Recorded test outcome, item CC1=C2C[C@H]3[C@@H](CC=C4C[C@@H](O)CC[C@@]43C)[C@@H]2CC[C@]12O[C@@H]1C[C@H](C)CN[C@H]1[C@H]2C
### Response inactive

Hey, just so you know, these numbers are from PubChem BioAssay (EPA / NIEHS).
